target-entity: T1, FL9 self-peptide (source protein not named) peptide on Qa-1b (mouse)
T1 peptide: FYAEATPML
assay-summary: multimer staining
metric: binding result

binder="FL9.34 (TCR, V domains shown) Valpha: AQSVTQPDARVTVSEGASLQLRCKYSYFGTPYLFWYVQYPRQGLQLLLKYYPGDPVVQGVNGFEAEFSKSNSSFHLRKASVHWSDWAVYFCAVRGQGGRALIFGTGTTVSVSP Vbeta: NSGVVQSPRYIIKGKGERSILKCIPISGHLSVAWYQQTQGQELKFFIQHYDKMERDKGNLPSRFSVQQFDDYHSEMNMSALELEDSAVYFCASSPGPSQNTLYFGAGTRLSVL" endpoint_value=recognises
binder="FL9.31 (TCR, V domains shown) Valpha: AQSVTQPDARVTVSEGASLQLRCKYSYFGTPYLFWYVQYPRQGLQLLLKYYPGDPVVQGVNGFEAEFSKSNSSFHLRKASVHWSDWAVYFCAVKDSGYNKLTFGKGTVLLVSP Vbeta: NSGVVQSPRYIIKGKGERSILKCIPISGHLSVAWYQQTQGQELKFFIQHYDKMERDKGNLPSRFSVQQFDDYHSEMNMSALELEDSAVYFCASSLAGREQYFGPGTRLTVL" endpoint_value=recognises
